System: KM12
Assay: NCI tumour cell line growth inhibition, 48 h
Active and inactive are the calls of the source. No stated cut-off is given here; in the data, active = GI50 up to about 1.1 µM and inactive = higher. Positions of bridges follow the written chain, without caps; N, C: chain ends. Non-standard residues stand in square brackets, D forms with d. Residues, ends and D or L forms follow the SMILES beside them. ξ: configuration not given here. *: point of attachment. X28 = O=C(/C=C/C=C/C=C/C=C/C=C/C(=O)*)NC1=C(O)CCC1=O; Pro(4R-Me) = C[C@H]1CN[C@H](C(=O)O)C1; NMeA = CN[C@@H](C)C(=O)O; ξF = NC(Cc1ccccc1)C(=O)O; ξA = CC(N)C(=O)O
Write down one outcome, taken from Y for active, N for inactive

Query block: Please indicate how the test categorized Cc1ccc(/N=N/c2c(C)c(C#N)c(=S)n(C3OC(CO)C(O)C(O)C3O)c2-c2ccccc2)cc1 (stereo not given) .
Result block: N

Query block: Please indicate how the test categorized `CCOC(=O)Cc1cnc(NC(NC(=O)CC)(C(F)(F)F)C(F)(F)F)s1` .
Result block: N

Query block: Please indicate how the test categorized `COc1ccc(NCc2cc(OC)c(OC)c(OC)c2)cc1` .
Result block: Y

Query block: Please indicate how the test categorized Cn1c(C(O)C2(c3cccnc3)SCCCS2)cc2ccccc21 (stereo not given) .
Result block: N

Query block: Please indicate how the test categorized Cc1cccc(C)c1NC(=O)C(Cc1c[nH]c2ccccc12)NC(=O)OCc1ccccc1 (stereo not given) .
Result block: N

Query block: Please indicate how the test categorized `O=C1CSC(=S)N1/N=C/c1ccc(Cl)c([N+](=O)[O-])c1` .
Result block: N

Query block: Please indicate how the test categorized CN(C)C12C=CC=CC3=C(c4ccccc4)C(c4ccccc4)=C(c4ccccc4)C31c1ccccc1C2 (stereo not given) .
Result block: N

Query block: Please indicate how the test categorized COc1ccc(NC(=O)CC(=O)N2N=C(C)C(/N=N\c3ccc(S(=O)(=O)c4ccc(/N=N/C5C(=O)N(C(=O)CC(=O)Nc6ccc(OC)cc6)N=C5C)cc4)cc3)C2=O)cc1 (stereo not given) .
Result block: N

Query block: Please indicate how the test categorized `COc1ccc2oc(OC)c(CC=C(C)C)c(=O)c2c1C` .
Result block: N

Query block: Please indicate how the test categorized CC(C)(C)c1ccc2c(c1)C(O)(c1ccccc1)c1cc(C(C)(C)C)ccc1C2(O)C(F)(F)F (stereo not given) .
Result block: N

Query block: Please indicate how the test categorized `O=c1c(S(=O)(=O)Oc2ccccc2)coc2cc(F)ccc12` .
Result block: N

Query block: Please indicate how the test categorized `COc1ccc(OC)c2[s+]snc12` .
Result block: N

Query block: Please indicate how the test categorized `CCN(CC)CCNc1ccc2nnn3c4ccccc4c(=O)c1c23` .
Result block: N

Query block: Please indicate how the test categorized `OC1=CN=C(c2ccccc2)Oc2ccccc21` .
Result block: N

Query block: Please indicate how the test categorized `CN(/N=C/c1ccccn1)C1=NCCN1` .
Result block: N

Query block: Please indicate how the test categorized `COc1cc(CCN)c(OC)c(OC)c1` .
Result block: N

Query block: Please indicate how the test categorized `CCOC(=O)C(C)(C(=O)OCC)/C(Cl)=C\Cl` .
Result block: N

Query block: Please indicate how the test categorized `CCOC(=O)c1nc(C)oc1C(F)(F)F` .
Result block: N

Query block: Please indicate how the test categorized C/C=C1/CN2CCC34c5ccccc5N(C)C23C2CC1C4(C(=O)OC)C(O)O2 (stereo not given) .
Result block: N

Query block: Please indicate how the test categorized CC1NC(=O)[C@H](C)N(C)C(=O)[C@@H]2CCCN2C(=O)[C@@H](NC(=O)C(Cc2ccccc2)NC(=O)/C=C/C=C/C=C/C=C/C=C/C(=O)NC2=C(O)CCC2=O)COC(=O)[C@@H]2C[C@@H](C)CN2C1=O (stereo partly drawn) (X28-[ξF]SP[NMeA][ξA][Pro(4R-Me)]; ester 2-C) .
Result block: N
